Tested on: HepG2
EXPERIMENT_NOTES: cytotoxicity call (relative viability < 0.9)
MEASUREMENT_PARAMETERS: 10 µM
The campaign covered roughly 39,000 compounds. About 3,300 (8.5%) were called active. The full list was thinned out, with actives kept by preference.
Outcome codes: y (active), n (inactive)

compound=COCCOC(=O)N1C(=O)[C@@]2(c3cc(C#CC4(O)CCCCCC4)ccc31)[C@H](C(=O)NC[C@H](O)c1ccccc1)[C@H]1C(=O)O[C@H](c3ccccc3)[C@H](c3ccccc3)N1[C@@H]2c1ccc(OCCO)cc1 assigned_label=n
compound=C[C@H]1CN([C@@H](C)CO)C(=O)c2cc(C#Cc3ccccc3F)cnc2O[C@H]1CN(C)S(=O)(=O)c1ccccc1F assigned_label=n
compound=Cc1ccc(S(=O)(=O)N(C)C[C@@H]2Oc3ccc(NS(C)(=O)=O)cc3CC(=O)N([C@@H](C)CO)C[C@H]2C)cc1 assigned_label=n
compound=C[C@@H]1CN([C@H](C)CO)C(=O)c2cccc(NC(=O)c3cnccn3)c2O[C@H]1CN(C)Cc1ccncc1 assigned_label=n
compound=C=C[C@](C)(O)CCC[C@H](C)CCC[C@H](C)CCCC(C)C assigned_label=n
compound=CC(C)=CCC/C(C)=C/CO assigned_label=n
compound=O=C1CN(S(=O)(=O)Cc2ccccc2)C[C@@H]2[C@@H](c3ccc(C#Cc4cccc(F)c4)cc3)[C@H](CO)N12 assigned_label=n
compound=COc1ccc(S(=O)(=O)Nc2ccc3c(c2)C(=O)N([C@@H](C)CO)C[C@@H](C)[C@@H](CN(C)C(=O)Nc2cccc4ccccc24)OCCCC[C@@H](C)O3)cc1 assigned_label=n
compound="C=CC(C)(O)CCC=C(C)CCC=C(C)C (stereo not drawn)" assigned_label=y
compound=C[C@H](CO)N1C[C@H](C)[C@@H](CN(C)S(=O)(=O)c2cn(C)cn2)Oc2c(NC(=O)c3nc4ccccc4s3)cccc2C1=O assigned_label=n
compound=O=C(CN1CCOCC1)NCC[C@@H]1CC[C@@H](NS(=O)(=O)c2ccc(F)cc2)[C@@H](CO)O1 assigned_label=n
compound=Cc1ccc(S(=O)(=O)N2C[C@H](O)COC[C@H]3O[C@H](CC(=O)NCc4ccc5c(c4)OCO5)CC[C@@H]32)cc1 assigned_label=n
compound=COc1ccc(CN(C)C[C@@H]2OCCCC[C@H](C)Oc3ccc(NC(=O)Nc4ccccc4)cc3C(=O)N([C@@H](C)CO)C[C@@H]2C)cc1 assigned_label=n
compound=CC(C)NC(=O)N[C@H]1C=C[C@H](CC(=O)NCCCN(C)C)O[C@@H]1CO assigned_label=n
compound=Cc1noc(C)c1S(=O)(=O)N(C)C[C@H]1Oc2ccc(NS(=O)(=O)c3cccs3)cc2CC(=O)N([C@@H](C)CO)C[C@H]1C assigned_label=n
compound=O=C1N[C@@H]2[C@@H]1[C@H]1C=C[C@H]2C1 assigned_label=n
compound=CC(C)=CCCC(C)=CCO assigned_label=y
compound=O=C1CN(S(=O)(=O)Cc2ccccc2)C[C@@H]2[C@H](c3ccc(C#Cc4cccc(F)c4)cc3)[C@@H](CO)N12 assigned_label=n

###

Test system: HepG2
EXPERIMENT_NOTES: cytotoxicity call (relative viability < 0.9)
MEASUREMENT_PARAMETERS: 10 µM
Out of some 39,000 compounds screened, about 3,300 (8.5%) were called active. Shown is part of a subset that was picked to be rich in actives.
Possible outcomes: TRUE = active, FALSE = inactive

compound=O=C(Nc1ccc(-c2nc3cc(NC(=O)c4ccccc4[N+](=O)[O-])ccc3o2)cc1)c1ccccc1[N+](=O)[O-] assigned_label=TRUE
compound="CC(=O)OC1CCC2(C)C(CCC3(C)C2CC=C2C4CC(C)(C)CCC4(C(=O)O)CCC23C)C1(C)C (stereo unspecified)" assigned_label=FALSE
compound=CNC[C@@H]1Oc2c(NS(=O)(=O)c3cn(C)cn3)cccc2C(=O)N([C@H](C)CO)C[C@@H]1C assigned_label=FALSE
compound=COc1ccc(NC(=O)N(C)C[C@H]2OCc3cnnn3CCCC(=O)N([C@H](C)CO)C[C@H]2C)c(OC)c1 assigned_label=FALSE
compound=Cc1ccc(S(=O)(=O)Nc2ccc3c(c2)C(=O)N([C@@H](C)CO)C[C@H](C)[C@@H](CN(C)C(=O)Cc2ccccc2)OCCCC[C@@H](C)O3)cc1 assigned_label=TRUE
compound=O=C(Nc1ccc(-c2nc3ccc(NC(=O)c4ccccc4[N+](=O)[O-])cc3[nH]2)cc1)c1ccccc1[N+](=O)[O-] assigned_label=TRUE

###

Tested on: HepG2
EXPERIMENT_NOTES: cytotoxicity call (relative viability < 0.9)
MEASUREMENT_PARAMETERS: 10 µM
Screen size: about 39,000 compounds; about 3,300 (8.5%) were called active. What follows is part of a selection rich in actives, with near analogues and random picks from the rest.
Labels: 1.0 (active), 0.0 (inactive)

molecule=COc1ccc2c3c([nH]c2c1)[C@H](CO)N(C[C@]13CN(CCc2ccccc2)C1)C(=O)CN1CCOCC1 assigned_label=0.0
molecule=Cc1ccc(S(=O)(=O)Nc2ccc3c(c2)C(=O)N([C@H](C)CO)C[C@@H](C)[C@@H](CN(C)S(=O)(=O)c2ccc(Cl)cc2)OCCCC[C@@H](C)O3)cc1 assigned_label=0.0
molecule=COc1ccc(NC(=O)Nc2ccc3c(c2)C(=O)N([C@H](C)CO)C[C@H](C)[C@H](CN(C)S(=O)(=O)c2c(C)noc2C)OCCCC[C@H](C)O3)cc1 assigned_label=0.0
molecule=O=C(/C=c1/nc2c([nH]c1=O)=NON2)c1ccccc1 assigned_label=0.0
molecule=CN(C)CC(=O)N[C@@H]1CC[C@@H](CC(=O)O)O[C@H]1CO assigned_label=0.0
molecule=CN1CCN(C(=O)[C@@H]2[C@@H](C(=O)O)[C@H]3CC[C@H]2O3)CC1 assigned_label=0.0
molecule=C[C@@H]1CN([C@H](C)CO)C(=O)Cc2cc(NC(=O)Nc3ccc(C(F)(F)F)cc3)ccc2O[C@H]1CN(C)Cc1ccc(Cl)c(Cl)c1 assigned_label=0.0
molecule="COc1ccc2c(c1OC)C(=O)OC2C1c2c(cc3c(c2OC)OCO3)CCN1C.Cl (stereo unspecified)" assigned_label=1.0
molecule=C[C@@H]1CN([C@@H](C)CO)C(=O)Cc2cc(NC(=O)CCN3CCOCC3)ccc2O[C@H]1CN(C)Cc1ccc(C(=O)Nc2ccccc2N)cc1 assigned_label=0.0
molecule=C[C@H](CO)N1C[C@H](C)[C@@H](CN(C)S(=O)(=O)c2cn(C)cn2)Oc2ccc(NC(=O)c3ccncc3)cc2C1=O assigned_label=0.0
molecule=Cc1ccc(S(=O)(=O)N(C)C[C@@H]2OCCCC[C@@H](C)Oc3ccc(NS(=O)(=O)c4ccc(Cl)cc4)cc3C(=O)N([C@H](C)CO)C[C@@H]2C)cc1 assigned_label=0.0
molecule=COc1ccc2c3c([nH]c2c1)[C@@H](CO)N(Cc1ccccc1)C[C@]13CCN(CC1)C(=O)Nc1cccc(c1)F assigned_label=0.0
molecule="CC1=NCCC2c3ccc(O)cc3NC12 (stereo unspecified)" assigned_label=1.0
molecule=COc1ccc2c3c([nH]c2c1)[C@@H](CO)N(Cc1ccc(cc1)Cl)C[C@]13CN(CCc2ccccc2)C1 assigned_label=1.0
molecule=C[C@@H]1CN([C@H](C)CO)C(=O)c2cc(NC(=O)C3CCCCC3)ccc2O[C@@H](C)CCCCO[C@H]1CN(C)C(=O)C1CCCCC1 assigned_label=0.0
molecule=C[C@H](CO)N1C[C@H](C)[C@@H](CN(C)Cc2cccc3c2OCCCO3)OCc2cn(nn2)CCCC1=O assigned_label=0.0

###

System: HepG2
EXPERIMENT_NOTES: cytotoxicity call (relative viability < 0.9)
MEASUREMENT_PARAMETERS: 10 µM
The campaign covered roughly 39,000 compounds. About 3,300 (8.5%) were called active. The full list was thinned out, with actives kept by preference.
Classes used: active, inactive

structure_smiles_string=C[C@@H]1CN([C@H](C)CO)C(=O)Cc2cc(NC(=O)Cn3cnnn3)ccc2O[C@@H]1CN(C)Cc1ccc(C(=O)Nc2ccccc2N)cc1 assigned_label=inactive
structure_smiles_string=COc1ccccc1S(=O)(=O)N(C)C[C@H]1OCc2cn(nn2)CCCC(=O)N([C@H](C)CO)C[C@@H]1C assigned_label=inactive
structure_smiles_string=C[C@@H]1CN([C@@H](C)CO)C(=O)c2cc(NC(=O)Nc3ccccc3)ccc2O[C@H]1CN(C)Cc1ccc(-c2ccccc2)cc1 assigned_label=active
structure_smiles_string=COC(=O)CCCCCCC(=O)Nc1ccc([C@H]2O[C@H](CSc3nc(-c4ccccc4)c(-c4ccccc4)o3)C[C@H](c3ccc(NC(=O)CCCCCCC(=O)OC)cc3)O2)cc1 assigned_label=inactive
structure_smiles_string=CCS(=O)(=O)Nc1ccc2c(c1)C(=O)N(C)C[C@H](OC)[C@H](C)CN(CCC(F)(F)F)[C@@H](C)CO2 assigned_label=inactive

# credit: the antibiotic and cytotoxicity screens of Wong et al. (2023)
